test system: SNB-75; test: NCI tumour cell line growth inhibition, 48 h
Activity calls are given as the source filed them. Cut-off read from the data, not from the text of the source: active = GI50 up to about 1.1 µM and inactive = higher.
Hello, when you answer, please use one of the following outcomes: 1.0 (active), 0.0 (inactive)

Assay outcome for `N=C(N)NS(=O)(=O)c1ccc(NC(=O)c2c3ccccc3nc3ccccc23)cc1` : what was it?
0.0

Assay outcome for `Cc1cc2c(c(=O)n1C)SCC2` : what was it?
0.0

Assay outcome for O=C1NC2OC(CO)C(O)C(O1)C2O (stereo unspecified) : what was it?
0.0

Assay outcome for `CCN(CCCl)c1cc(CN(C)C)cc(NC(=O)c2cc(C(=O)Nc3cc(CN(C)C)cc(N(CC)CCCl)c3)n(C)n2)c1` : what was it?
1.0

Assay outcome for `CN(C(=O)Cc1cccc(N=C=S)c1)[C@H]1CCCC[C@@H]1N1CCCC1` : what was it?
0.0

Assay outcome for `O=C1/C(=C2\Sc3c(ccc(Cl)c3Cl)C2=O)Sc2c1ccc(Cl)c2Cl` : what was it?
0.0
